Values from paper PMC11378028

- target-or-system: human DNA topoisomerase IIα (Homo sapiens, UniProt P11388)
- Sequence (P11388 whole entry): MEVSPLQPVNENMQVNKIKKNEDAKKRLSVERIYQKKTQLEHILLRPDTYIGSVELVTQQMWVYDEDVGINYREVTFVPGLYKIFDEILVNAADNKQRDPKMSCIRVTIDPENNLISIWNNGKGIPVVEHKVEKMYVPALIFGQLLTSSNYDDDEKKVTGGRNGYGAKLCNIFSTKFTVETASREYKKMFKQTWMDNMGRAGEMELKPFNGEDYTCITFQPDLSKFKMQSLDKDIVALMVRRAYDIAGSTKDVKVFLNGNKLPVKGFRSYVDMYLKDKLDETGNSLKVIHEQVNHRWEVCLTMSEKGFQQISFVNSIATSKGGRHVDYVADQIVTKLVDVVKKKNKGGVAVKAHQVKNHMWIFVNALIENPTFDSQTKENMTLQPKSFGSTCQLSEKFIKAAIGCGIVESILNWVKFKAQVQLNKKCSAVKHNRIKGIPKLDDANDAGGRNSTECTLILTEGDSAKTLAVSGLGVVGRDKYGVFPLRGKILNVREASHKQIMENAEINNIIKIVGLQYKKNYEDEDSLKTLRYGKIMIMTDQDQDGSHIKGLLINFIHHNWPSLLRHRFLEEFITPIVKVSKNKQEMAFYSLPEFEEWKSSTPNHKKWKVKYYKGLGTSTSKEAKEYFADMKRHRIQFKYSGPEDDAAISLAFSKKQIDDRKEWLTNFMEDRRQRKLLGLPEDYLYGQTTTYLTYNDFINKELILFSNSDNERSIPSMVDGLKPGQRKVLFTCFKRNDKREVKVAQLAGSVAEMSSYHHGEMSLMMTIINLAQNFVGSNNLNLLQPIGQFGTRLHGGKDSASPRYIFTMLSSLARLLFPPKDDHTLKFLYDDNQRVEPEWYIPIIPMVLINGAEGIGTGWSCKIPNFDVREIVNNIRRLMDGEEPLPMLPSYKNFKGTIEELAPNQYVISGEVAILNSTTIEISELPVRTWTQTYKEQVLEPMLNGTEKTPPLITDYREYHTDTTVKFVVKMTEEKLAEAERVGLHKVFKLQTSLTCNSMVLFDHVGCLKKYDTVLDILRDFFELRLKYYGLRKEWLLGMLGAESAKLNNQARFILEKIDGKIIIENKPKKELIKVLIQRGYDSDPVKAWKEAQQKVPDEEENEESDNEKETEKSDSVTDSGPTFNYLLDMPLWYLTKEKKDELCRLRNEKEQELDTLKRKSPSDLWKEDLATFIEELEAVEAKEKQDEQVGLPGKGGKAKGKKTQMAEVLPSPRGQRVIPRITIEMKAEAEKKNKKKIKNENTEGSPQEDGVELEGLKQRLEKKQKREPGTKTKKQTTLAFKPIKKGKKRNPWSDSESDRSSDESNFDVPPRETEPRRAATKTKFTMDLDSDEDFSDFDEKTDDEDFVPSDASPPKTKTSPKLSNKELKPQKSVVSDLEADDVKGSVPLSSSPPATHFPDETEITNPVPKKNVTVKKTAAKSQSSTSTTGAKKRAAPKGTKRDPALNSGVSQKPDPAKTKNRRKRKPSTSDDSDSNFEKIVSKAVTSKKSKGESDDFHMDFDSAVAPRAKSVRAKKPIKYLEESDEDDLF
- test-summary: human DNA topoisomerase IIα inhibition
- Assay type: biochemical
- test-conditions: read-out: RA (residual activity) Human topo IIα
Known remaining activity at 100 µM of a selection of compounds
Respond numerically; units are % and should not be typed.

Known results for compounds:
# compound, target-or-system, remaining activity at 100 µM [%]
data = [
    ("Cc1[nH]c(C(=O)Nc2ccc(C(=O)O)cc2N2CCCC(CNC(=O)OC(C)(C)C)C2)c(Cl)c1Cl (stereo not drawn) [Compound 18i]", "human DNA topoisomerase IIα (Homo sapiens, UniProt P11388)", 128),
    ("Cc1[nH]c(C(=O)Nc2ccc(-c3n[nH]c(=O)o3)cc2OCc2ccccc2)c(Cl)c1Cl [Compound 39]", "human DNA topoisomerase IIα (Homo sapiens, UniProt P11388)", 104),
    ("Cc1[nH]c(C(=O)Nc2ccc(-c3n[nH]c(=O)o3)cc2N2CC(C)OC(C)C2)c(Cl)c1Cl (stereo not drawn) [Compound 22g]", "human DNA topoisomerase IIα (Homo sapiens, UniProt P11388)", 97),
]

Value wanted: remaining activity at 100 µM (human DNA topoisomerase IIα (Homo sapiens, UniProt P11388)) of entry Cc1[nH]c(C(=O)Nc2ccc(-c3n[nH]c(=O)o3)cc2N2CCOC(C)C2)c(Cl)c1Cl (stereo not drawn) [Compound 22f]
98

Further, for Cc1[nH]c(C(=O)N(Cc2ccccc2)c2ccc(-c3n[nH]c(=O)o3)cc2)c(Cl)c1Cl [Compound 33] ?
92

Further, for Cc1[nH]c(C(=O)Nc2ccc(-c3n[nH]c(=O)o3)cc2N2CCNCC2)c(Cl)c1Cl.Cl [Compound 23a] ?
86
